η, quenching efficiency of the fluorescence intensity listing for selected compounds.
TEST_METHOD_NOTES: Photophysical properties and pKa of DAOTA dyes, fluorescence intensity at different pH, 6% DMSO in PBS buffer
Format: physicochemical
READOUT_KIND: η, quenching efficiency of the fluorescence intensity (%)

- COMPOUND: "CN1c2cccc3c2C2c4c(cccc4N(c4cc(C(F)(F)F)ccc4O)c4cccc1c42)O3 (stereo not shown)"
  UNITS_LABEL: "%"
  COMPARISON_OPERATOR: ">"
  ASSAY_RESULT: 99
- COMPOUND: "CN1c2cccc3c2C2c4c(cccc4N(c4cccc(O)c4)c4cccc1c42)O3 (stereo not shown)"
  UNITS_LABEL: "%"
  COMPARISON_OPERATOR: "="
  ASSAY_RESULT: 99
- COMPOUND: "CN1c2cccc3c2C2c4c(cccc4N(c4ccc(O)cc4)c4cccc1c42)O3 (stereo not shown)"
  UNITS_LABEL: "%"
  COMPARISON_OPERATOR: ">"
  ASSAY_RESULT: 99
- COMPOUND: "CN1c2cccc3c2C2c4c(cccc4N(c4cc(O)cc(C(F)(F)F)c4)c4cccc1c42)O3 (stereo not shown)"
  UNITS_LABEL: "%"
  COMPARISON_OPERATOR: "="
  ASSAY_RESULT: 99

====

TEST_METHOD_NOTES: Photophysical properties and pKa of DAOTA dyes, fluorescence intensity at different pH, 6% DMSO in PBS buffer
Format: physicochemical
CONDITION_SET: second value of cell, deprotonated form
READOUT_KIND: λabs max, wavelength at maximum absorption of the lowest energy transition

- MOLECULE: "CN1c2cccc3c2C2c4c(cccc4N(c4cccc(O)c4)c4cccc1c42)O3 (stereo not shown)"
  ASSAY_RESULT: "559 nm"
- MOLECULE: "CN1c2cccc3c2C2c4c(cccc4N(c4cc(O)cc(C(F)(F)F)c4)c4cccc1c42)O3 (stereo not shown)"
  ASSAY_RESULT: "557 nm"
- MOLECULE: "CN1c2cccc3c2C2c4c(cccc4N(c4cc(C(F)(F)F)ccc4O)c4cccc1c42)O3 (stereo not shown)"
  ASSAY_RESULT: "558 nm"
- MOLECULE: "CN1c2cccc3c2C2c4c(cccc4N(c4ccc(O)cc4)c4cccc1c42)O3 (stereo not shown)"
  ASSAY_RESULT: "560 nm"

====

TEST_METHOD_NOTES: Absorption and emission spectra, photophysical properties of pH-responsive triangulenium dyes in solution
Assay type: physicochemical
Design: unit not given here
CONDITION_SET: in solution
λem (wavelength of maximum emission) listing for selected compounds.

- COMPOUND: "CCCCCCCCCCCCn1c2cccc3oc4cccc5c4[c+](c32)c2c1cccc2n5-c1cc(C(F)(F)F)ccc1O"
  λem (wavelength of maximum emission): 590
- COMPOUND: "Oc1ccccc1N1c2cccc3c2C2c4c(cccc4Oc4cccc1c42)O3"
  λem (wavelength of maximum emission): 558
- COMPOUND: "CCCCCCCCCCCCN1c2cccc3c2C2c4c(cccc4N(c4cc(S(C)(=O)=O)ccc4O)c4cccc1c42)O3 (stereo not drawn)"
  λem (wavelength of maximum emission): 590
- COMPOUND: "Oc1ccc(N2c3cccc4c3C3c5c(cccc5Oc5cccc2c53)O4)cc1"
  λem (wavelength of maximum emission): 563
- COMPOUND: "Oc1cccc(N2c3cccc4c3C3c5c(cccc5Oc5cccc2c53)O4)c1"
  λem (wavelength of maximum emission): 558
- COMPOUND: "CCCCCCCCCCCCN1c2cccc3c2C2c4c(cccc4N(c4cc(F)ccc4O)c4cccc1c42)O3 (stereo not drawn)"
  λem (wavelength of maximum emission): 590

====

TEST_METHOD_NOTES: Absorption and emission spectra, photophysical properties of pH-responsive triangulenium dyes in solution
Format: physicochemical
CONDITION_SET: off-state (quenched)
READOUT_KIND: ϕfl- (φfl-off, fluorescence quantum yield, off-state)

- MOLECULE: "CCCCCCCCCCCCN1c2cccc3c2C2c4c(cccc4N(c4cc(S(C)(=O)=O)ccc4O)c4cccc1c42)O3 (stereo not shown) [Compound 4g]"
  ASSAY_RESULT: "6%"
- MOLECULE: "Oc1cccc(N2c3cccc4c3C3c5c(cccc5Oc5cccc2c53)O4)c1 [Compound 3c]"
  ASSAY_RESULT: ">0.5%"
- MOLECULE: "Oc1ccccc1N1c2cccc3c2C2c4c(cccc4Oc4cccc1c42)O3 [Compound 3b]"
  ASSAY_RESULT: ">0.5%"
- MOLECULE: "Oc1ccc(N2c3cccc4c3C3c5c(cccc5Oc5cccc2c53)O4)cc1 [Compound 3d]"
  ASSAY_RESULT: ">0.5%"

====

TEST_METHOD_NOTES: Absorption and emission spectra, photophysical properties of pH-responsive triangulenium dyes in solution
Assay type: physicochemical
CONDITION_SET: in solution
READOUT_KIND: pKa

- MOLECULE: "CCCCCCCCCCCCN1c2cccc3c2C2c4c(cccc4N(c4cc(S(C)(=O)=O)ccc4O)c4cccc1c42)O3 (centres unmarked) [Compound 4g]"
  ASSAY_RESULT: 3.4
- MOLECULE: "Oc1ccccc1N1c2cccc3c2C2c4c(cccc4Oc4cccc1c42)O3 [Compound 3b]"
  ASSAY_RESULT: 6.9
- MOLECULE: "Oc1cccc(N2c3cccc4c3C3c5c(cccc5Oc5cccc2c53)O4)c1 [Compound 3c]"
  ASSAY_RESULT: 7.3
- MOLECULE: "CCCCCCCCCCCCn1c2cccc3oc4cccc5c4[c+](c32)c2c1cccc2n5-c1cc(C(F)(F)F)ccc1O [Compound 4h]"
  ASSAY_RESULT: 6.5
- MOLECULE: "Oc1ccc(N2c3cccc4c3C3c5c(cccc5Oc5cccc2c53)O4)cc1 [Compound 3d]"
  ASSAY_RESULT: 8.3

====

Ion/Io (Ion/Ioff, ratio between φfl-on and φfl-off) listing for selected compounds.
TEST_METHOD_NOTES: Absorption and emission spectra, photophysical properties of pH-responsive triangulenium dyes in solution
Format: physicochemical
READOUT_KIND: Ion/Io (Ion/Ioff, ratio between φfl-on and φfl-off)

- COMPOUND: "Oc1ccccc1N1c2cccc3c2C2c4c(cccc4Oc4cccc1c42)O3"
  ASSAY_RESULT: "~50"
- COMPOUND: "Oc1cccc(N2c3cccc4c3C3c5c(cccc5Oc5cccc2c53)O4)c1"
  ASSAY_RESULT: "~50"
- COMPOUND: "CCCCCCCCCCCCn1c2cccc3oc4cccc5c4[c+](c32)c2c1cccc2n5-c1cc(C(F)(F)F)ccc1O"
  ASSAY_RESULT: "~50"
- COMPOUND: "CCCCCCCCCCCCN1c2cccc3c2C2c4c(cccc4N(c4cc(S(C)(=O)=O)ccc4O)c4cccc1c42)O3 (centres unmarked)"
  ASSAY_RESULT: "~100"
- COMPOUND: "Oc1ccc(N2c3cccc4c3C3c5c(cccc5Oc5cccc2c53)O4)cc1"
  ASSAY_RESULT: "~50"

====

TEST_METHOD_NOTES: Photophysical properties and pKa of DAOTA dyes, fluorescence intensity at different pH, 6% DMSO in PBS buffer
Type: physicochemical
CONDITION_SET: second value of cell, deprotonated form
Source text: FIG. 6. Absorption spectra of MR-68_DAOTA measured in 6% DMSO in PBS buffer solution. Circles (o) represent the absorption spectrum of the protonated form (measured at acidic conditions) and crosses (x) represent the absorption spectrum of the deprotonated form (measured at basic conditions). FIG. 7. Emission spectra of MR-68_DAOTA measured in 6% DMSO in PBS buffer solution. […]
λ max, wavelength at the maximum fluorescence intensity listing for selected molecules.
READOUT_KIND: λ max, wavelength at the maximum fluorescence intensity (nm)

- MOLECULE: "CN1c2cccc3c2C2c4c(cccc4N(c4cc(O)cc(C(F)(F)F)c4)c4cccc1c42)O3 (stereo not shown)"
  UNITS_LABEL: "nm"
  ASSAY_RESULT: 588
- MOLECULE: "CN1c2cccc3c2C2c4c(cccc4N(c4cc(C(F)(F)F)ccc4O)c4cccc1c42)O3 (stereo not shown)"
  UNITS_LABEL: "nm"
  ASSAY_RESULT: 588

====

λabs max, wavelength at maximum absorption of the lowest energy transition listing for selected molecules.
TEST_METHOD_NOTES: Photophysical properties and pKa of DAOTA dyes, fluorescence intensity at different pH, 6% DMSO in PBS buffer
Type: physicochemical
CONDITION_SET: first value of cell, protonated form
READOUT_KIND: λabs max, wavelength at maximum absorption of the lowest energy transition

- MOLECULE: "CN1c2cccc3c2C2c4c(cccc4N(c4ccc(O)cc4)c4cccc1c42)O3 (stereo not shown) [MR-93_DAOTA]"
  ASSAY_RESULT: "555 nm"
- MOLECULE: "CN1c2cccc3c2C2c4c(cccc4N(c4cccc(O)c4)c4cccc1c42)O3 (stereo not shown)"
  ASSAY_RESULT: "554 nm"
- MOLECULE: "CN1c2cccc3c2C2c4c(cccc4N(c4cc(C(F)(F)F)ccc4O)c4cccc1c42)O3 (stereo not shown) [MR-66_DAOTA]"
  ASSAY_RESULT: "553 nm"
- MOLECULE: "CN1c2cccc3c2C2c4c(cccc4N(c4cc(O)cc(C(F)(F)F)c4)c4cccc1c42)O3 (stereo not shown) [MR-67.1_DAOTA]"
  ASSAY_RESULT: "553 nm"
